Each recorded value in this set is attributed to the supplement of paper PMC8728848.

# assay-target: Neu5Ac(a2-3)Gal(b1-3)GalNAc6S
# experiment: glycan array binding signal (z-score within array); higher = stronger binding
# condition-parameters: glycan notation: IUPAC condensed, linker removed
Many of the other results were omitted from the sample, so the strongest signals are more common in it than they were.
assay-endpoint: glycan array binding signal (z-score)

INSERT INTO assay_data (binder, result) VALUES
  ('CLEC-6 (Homo sapiens), Q8WXI8 (protein) MGLEKPQSKLEGGMHPQLIPSVIAVVFILLLSVCFIASCLVTHHNFSRCKRGTGVHKLEHHAKLKCIKEKSELKSAEGSTWNCCPIDWRAFQSNCYFPLTDNKTWAESERNCSGMGAHLMTISTEAEQNFIIQFLDRRLSYFLGLRDENAKGQWRWVDQTPFNPRRVFWHKNEPDNSQGENCVVLVYNQDKWAWNDVPCNFEASRICKIPGTTLN', -0.077),
  ('EUL D1A (Oryza sativa) (protein) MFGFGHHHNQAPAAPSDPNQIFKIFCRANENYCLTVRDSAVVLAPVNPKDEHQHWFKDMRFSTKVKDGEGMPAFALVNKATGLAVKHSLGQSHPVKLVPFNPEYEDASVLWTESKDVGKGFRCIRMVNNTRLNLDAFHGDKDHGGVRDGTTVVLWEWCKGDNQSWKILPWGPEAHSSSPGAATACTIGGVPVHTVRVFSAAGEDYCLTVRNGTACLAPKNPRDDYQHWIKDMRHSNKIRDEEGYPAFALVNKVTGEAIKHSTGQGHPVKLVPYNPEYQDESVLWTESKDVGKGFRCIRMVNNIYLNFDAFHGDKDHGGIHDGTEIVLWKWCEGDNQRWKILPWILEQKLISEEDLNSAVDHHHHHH', 2.32);
